Here's what we have: Ki numbers for AChE from Electrophorus electricus (Electrophorus electricus).
Quick note: give the figure in nM, leave out the unit.

INSERT INTO assay_data (smiles, tested_on, observed_measurement) VALUES
  ('CCCCCCC(=O)NS(=O)(=O)c1ccc(-c2nnc(SCC)o2)cc1', 'AChE from Electrophorus electricus (Electrophorus electricus)', 49.7),
  ('CCCCC(=O)NS(=O)(=O)c1ccc(-c2nnc(SCC)o2)cc1', 'AChE from Electrophorus electricus (Electrophorus electricus)', 41.2),
  ('CCCCCCCCC(=O)NS(=O)(=O)c1ccc(-c2nnc(SCC)o2)cc1', 'AChE from Electrophorus electricus (Electrophorus electricus)', 47.6),
  ('CCCC(=O)NS(=O)(=O)c1ccc(-c2nnc(SCC)o2)cc1', 'AChE from Electrophorus electricus (Electrophorus electricus)', 48.4),
  ('CCCCCCCC(=O)NS(=O)(=O)c1ccc(-c2nnc(SCC)o2)cc1', 'AChE from Electrophorus electricus (Electrophorus electricus)', 23.1),
  ('CCCCCCCCCCCC(=O)NS(=O)(=O)c1ccc(-c2nnc(SCC)o2)cc1', 'AChE from Electrophorus electricus (Electrophorus electricus)', 46.7),
  ('CCSc1nnc(-c2ccc(S(=O)(=O)NC(=O)c3ccccc3)cc2)o1', 'AChE from Electrophorus electricus (Electrophorus electricus)', 52.5),
  ('CCSc1nnc(-c2ccc(S(=O)(=O)NC(=O)c3ccc(C)cc3)cc2)o1', 'AChE from Electrophorus electricus (Electrophorus electricus)', 47);

Now look at this one.
Value lookup for Ki; key = CCCCCC(=O)NS(=O)(=O)c1ccc(-c2nnc(SCC)o2)cc1
39.3

###

biological target: hCA I (Homo sapiens); assay: hCA I esterase activity/kinetic assay; format: biochemical; conditions: ratio of KI of acetazolamide to KI of compound
Sequence (P00915 whole entry): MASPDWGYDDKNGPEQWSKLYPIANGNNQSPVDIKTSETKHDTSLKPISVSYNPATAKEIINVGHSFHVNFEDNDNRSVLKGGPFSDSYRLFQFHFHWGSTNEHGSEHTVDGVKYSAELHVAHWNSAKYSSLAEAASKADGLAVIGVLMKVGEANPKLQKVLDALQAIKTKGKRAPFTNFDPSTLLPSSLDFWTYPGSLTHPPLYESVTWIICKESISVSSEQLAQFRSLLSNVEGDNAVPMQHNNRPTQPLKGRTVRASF
Label True when Selectivity index AAZ/hCA I is strictly below 10; at or above that, label False.

INSERT INTO results (compound, tested_on, discrete_label) VALUES
  ('CCCCCCCCC(=O)NS(=O)(=O)c1ccc(-c2nnc(SCC)o2)cc1 [6i]', 'hCA I (Homo sapiens)', 'False'),
  ('CCCCCCC(=O)NS(=O)(=O)c1ccc(-c2nnc(SCC)o2)cc1 [6g]', 'hCA I (Homo sapiens)', 'False');

Is Selectivity index AAZ/hCA I strictly under 10 for the entry CCCCCCCC(=O)NS(=O)(=O)c1ccc(-c2nnc(SCC)o2)cc1 [6h] ?
False

Is Selectivity index AAZ/hCA I strictly under 10 for the entry CCSc1nnc(-c2ccc(S(=O)(=O)NC(=O)c3ccccc3)cc2)o1 [6a] ?
False

Is Selectivity index AAZ/hCA I strictly under 10 for the entry CCCCCC(=O)NS(=O)(=O)c1ccc(-c2nnc(SCC)o2)cc1 [6f] ?
False

Is Selectivity index AAZ/hCA I strictly under 10 for the entry CCSc1nnc(-c2ccc(S(=O)(=O)NC(=O)c3ccc(C)cc3)cc2)o1 [6b] ?
True

Is Selectivity index AAZ/hCA I strictly under 10 for the entry CCCCCCCCCCCC(=O)NS(=O)(=O)c1ccc(-c2nnc(SCC)o2)cc1 [6j] ?
False

Is Selectivity index AAZ/hCA I strictly under 10 for the entry CCCCC(=O)NS(=O)(=O)c1ccc(-c2nnc(SCC)o2)cc1 [6e] ?
True

###

molecular target: hCA II (Homo sapiens, UniProt P00918); assay: hCA II esterase activity/kinetic assay; type: biochemical; details: ratio of KI values
property_label: Selectivity index hCAI/hCA II

INSERT INTO measurements (compound, property_label, observed_measurement) VALUES
  ('CCCCCCC(=O)NS(=O)(=O)c1ccc(-c2nnc(SCC)o2)cc1 [6g]', 'Selectivity index hCAI/hCA II', 0.75),
  ('CCCCCCCCC(=O)NS(=O)(=O)c1ccc(-c2nnc(SCC)o2)cc1 [6i]', 'Selectivity index hCAI/hCA II', 0.34),
  ('CCCCCCCC(=O)NS(=O)(=O)c1ccc(-c2nnc(SCC)o2)cc1 [6h]', 'Selectivity index hCAI/hCA II', 0.29),
  ('CCSc1nnc(-c2ccc(S(=O)(=O)NC(=O)c3ccccc3)cc2)o1 [6a]', 'Selectivity index hCAI/hCA II', 2.32);

Value lookup for Selectivity index hCAI/hCA II; key = CCCCCC(=O)NS(=O)(=O)c1ccc(-c2nnc(SCC)o2)cc1 [6f]
1.13
